tested on: PC-3 prostate; assay: NCI tumour cell line growth inhibition, 48 h
READOUT NAME: GI50

S=C1SCN(Cc2ccccc2)CN1Cc1ccco1: 5.75 µM
[O]=[V]([OH])([OH])[OH]: > 100 µM
COc1ccc(C(O)c2cc3c(N)c(C(=O)Nc4cccc5ccccc45)sc3nc2C)cc1 (configuration not stated): 0.47 µM
N#CC(C#N)=C/C=C(\Sc1ccc(Cl)cc1)c1ccc(F)cc1: 0.496 µM
COCCOC1=C(Cl)C(=O)c2ccccc2C1=O: 2.18 µM
CN(C)c1ccc(-c2cc(-c3ccc(Nc4nc(Nc5ccc(Cl)cc5)nc(Nc5ccc(Cl)cc5)n4)cc3)nc(N)c2C#N)cc1: 1.53 µM
COc1ccc(-c2cc(/C=C/C(=O)c3ccc(N)cc3)[nH]n2)cc1OC: 3.71 µM
Nc1nc(=S)c2ncn(C3OC(COP(=O)(O)O)C(O)C3O)c2[nH]1 (configuration not stated): 3.44 µM
CC(=O)Oc1ccc(C2=Cc3ccc(OC(C)=O)cc3OC2C)cc1 (configuration not stated): 5.8 µM
CC(=O)Oc1c(C(=O)[O-])cc(C(C)C)cc1C(C)C.CC(=O)Oc1c(C(=O)[O-])cc(C(C)C)cc1C(C)C.CC(=O)Oc1c(C(=O)[O-])cc(C(C)C)cc1C(C)C.CC(=O)Oc1c(C(=O)[O-])cc(C(C)C)cc1C(C)C.[Cu+2].[Cu+2]: 57.3 µM
O=C(COc1ccc(/C=C2\Oc3ccccc3C2=O)cc1)Nc1nc2ccccc2s1: 2.27 µM
CCCCCC(=O)O[C@]1(C(C)=O)CCC2C3CCC4=CC(=O)CC[C@]4(C)C3CC[C@@]21C (some centres not stated): 1.64 µM
